Organism: Homo sapiens
PROCEDURE_TEXT: To identify inhibition of the IFN signalling (Jak-Stat) pathway via expression of an eGFP reporter gene under the control of an IFN-stimulated response element (ISRE) containing MxA promoter.
Assay type: functional
Set-up: scale not given: direction of the effect not stated beside the values
EXPERIMENTAL_CONTEXT: 30 µM
QUANTITY_NAME: Percent Effect

COMPOUND: CN(CCc1ccccc1)C1CCCN(Cc2nccn2C)C1 (centres undefined)
Percent Effect: -25.8%
--
COMPOUND: O=C(NCCN1CCOCC1)c1cc(-c2ccc3c(c2)CCO3)n[nH]1
Percent Effect: -12.9%

Requested field: Percent Effect. Item: O=C(NCC1CCOC1)c1csc(-c2cccc(Cl)c2)n1 (centres undefined)
25.1%

Dear colleague, I am looking for the recorded Percent Effect of the following compound: O=C1CC(c2cccnc2)c2c(c(C(=O)O)cn2-c2ccccc2)N1 (centres undefined)
11.4%

Please look up its Percent Effect: COc1ccc(CN(Cc2cccnc2)CC2CCCO2)c(OC)c1 (centres undefined)
3.47%

Can you look up the measured Percent Effect of Cc1nc(C)n(CC2CCCN2CCCc2ccccc2)n1 (centres undefined) for me?
-8.87%

What value of Percent Effect has been recorded for this entry: CCN(CC)CCNC(=O)c1nn(CC)cc1Cl
29.3%

Report Percent Effect for CN(C)S(=O)(=O)N1CCC(Oc2ccc(C#N)cn2)CC1 please.
28%

Look at this compound and give its reported Percent Effect. CN(Cc1ccc2c(c1)OCCO2)C(=O)NCCc1cnn(C)c1
18%

Origin of the recorded values: ChEMBL document CHEMBL3988442
